# key: entry, value: pEC50
measurement-target: Peroxisome proliferator-activated receptor gamma (Homo sapiens, UniProt P37231)
Sequence (P37231 whole entry): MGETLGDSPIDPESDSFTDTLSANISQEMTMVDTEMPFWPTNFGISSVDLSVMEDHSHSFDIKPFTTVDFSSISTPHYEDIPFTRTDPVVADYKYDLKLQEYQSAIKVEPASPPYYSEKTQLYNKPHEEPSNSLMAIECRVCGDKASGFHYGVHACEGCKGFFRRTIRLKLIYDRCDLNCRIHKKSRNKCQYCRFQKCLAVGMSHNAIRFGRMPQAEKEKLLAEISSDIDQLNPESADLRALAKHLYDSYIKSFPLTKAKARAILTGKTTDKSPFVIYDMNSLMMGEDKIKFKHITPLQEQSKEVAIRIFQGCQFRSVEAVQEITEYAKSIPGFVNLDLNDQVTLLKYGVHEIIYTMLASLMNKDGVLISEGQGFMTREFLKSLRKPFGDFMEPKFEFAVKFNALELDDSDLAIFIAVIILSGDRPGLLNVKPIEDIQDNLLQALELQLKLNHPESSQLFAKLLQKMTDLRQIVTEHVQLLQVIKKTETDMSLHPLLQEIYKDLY
assay-overview: Agonist activity at PPARgamma (unknown origin) incubated for 3 to 16 hrs by pathhunter nuclear hormone receptor assay
pEC50: −log10 of the molar value.
property-label: pEC50

1. Cc1cc(CCc2cc(-c3ccc(Br)cc3)on2)cc(C)c1OC(C)(C)C(=O)O = 6.34
2. Cc1cc(Cc2cc(-c3ccc(Br)cc3)on2)cc(C)c1OC(C)(C)C(=O)O = 5.53

---

assay-overview: Oral bioavailability in C57BL/6J mouse at 10 mg/kg upto 24 hrs by LC-MS/MS analysis
condition-description: in vivo
property-label: bioavailability (%)

1. Cc1cc(Cc2cc(-c3ccc(Br)cc3)on2)cc(C)c1OC(C)(C)C(=O)O = 59.8
